# Tested on: IFNγ-induced NO production in RAW 264.7 cells
# protocol details: Nitric Oxide Suppression Assay (IFNγ-induced NO, Griess nitrite readout)
# Assay type: cell-based, mouse
# measurement conditions: Mus musculus, RAW264.7, Table 2; RAW 264.7 cells, 2 h pretreatment, 20 ng/mL interferon gamma 24 h; read-out: Avg NO IC50 (nM) (Mean ± SD)
parameter: IC50 (nM)

C[C@@H]1[C@H]2[C@H]3C(=O)C=C4[C@@]5(C)C=C(C#N)C(=O)C(C)(C)[C@@H]5CC[C@@]4(C)[C@]3(C)CC[C@@]2(CN2CCCC2=O)CC[C@H]1C [Compound T15] | 4.2

1. CNC(=O)N(C)C[C@]12CC[C@@H](C)[C@H](C)[C@H]1[C@H]1C(=O)C=C3[C@@]4(C)C=C(C#N)C(=O)C(C)(C)[C@@H]4CC[C@@]3(C)[C@]1(C)CC2 [Compound T36]
2. C[C@@H]1[C@H]2[C@H]3C(=O)C=C4[C@@]5(C)C=C(C#N)C(=O)C(C)(C)[C@@H]5CC[C@@]4(C)[C@]3(C)CC[C@@]2(CNC(=O)OC(C)(C)C)CC[C@H]1C [Compound T20]
Prompt: Which record would sort first by descending IC50, 1 or 2 ? To answer, give the label that identifies your chosen option.
Response: 2
